All values here come from patent US9828379B2.

Reported inhibition at 1 µM values for a set of molecules
Molecular target: MAGL (Mus musculus)
Sequence (O35678 whole entry): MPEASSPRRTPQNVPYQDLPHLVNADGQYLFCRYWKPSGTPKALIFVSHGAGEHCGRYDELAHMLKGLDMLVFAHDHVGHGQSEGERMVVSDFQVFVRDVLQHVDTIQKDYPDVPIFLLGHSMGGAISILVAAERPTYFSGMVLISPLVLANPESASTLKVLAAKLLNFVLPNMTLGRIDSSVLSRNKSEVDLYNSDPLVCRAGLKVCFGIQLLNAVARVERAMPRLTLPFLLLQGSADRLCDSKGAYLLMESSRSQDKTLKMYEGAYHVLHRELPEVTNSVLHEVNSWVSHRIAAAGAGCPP
Assay: In vitro competitive activity-based protein profiling (Table 2, % inhibition at 1 μM)
Format: biochemical
Details: read-out: % Inhibition at 1 μM MAGL
assayMetric: inhibition at 1 µM

>>> observedvalue("O=C(ON1C(=O)CCC1=O)N1CC2CN(Cc3ccc(N4CCOCC4)cc3OC(F)(F)F)CC2C1 (stereo not shown) [Example 86]")
"> 75%"
>>> observedvalue("O=C(OC(C(F)(F)F)C(F)(F)F)N1CC2CN(Cc3ccc(Cl)cc3N3Cc4cccnc4C3)CC2C1 (stereo not shown) [Example 32]")
"> 75%"
>>> observedvalue("CCn1cc(CN2CC3CN(C(=O)OC(C(F)(F)F)C(F)(F)F)CC3C2)c(-c2ccccc2N2CCOCC2)n1 (stereo not shown) [Example 131]")
"> 75%"
>>> observedvalue("O=C(ON1C(=O)CCC1=O)N1CC2CN(Cc3ccc(-c4ccccc4)cc3)CC2C1 (stereo not shown) [Example 84]")
"> 75%"
>>> observedvalue("O=C(OC(C(F)(F)F)C(F)(F)F)N1CC2CN(Cc3cccc(Cl)c3N3CCC4(CCOCC4)C3)CC2C1 (stereo not shown) [Example 172]")
"> 75%"
>>> observedvalue("CCn1cc(CN2CC3CN(C(=O)OC(C(F)(F)F)C(F)(F)F)CC3C2)c(-c2ccccn2)n1 (stereo not shown) [Example 70]")
"25 to 75%"
>>> observedvalue("Cc1cccc(CN2CC3CN(C(=O)ON4C(=O)CCC4=O)CC3C2)c1N1CCCCC1 (stereo not shown) [Example 105]")
"25 to 75%"
>>> observedvalue("CCn1ncc(CN2CC3CN(C(=O)OC(C(F)(F)F)C(F)(F)F)CC3C2)c1C(=O)NCC1CCOCC1 (stereo not shown) [Example 181]")
"> 75%"
>>> observedvalue("Cn1nc(-c2ccccc2)cc1CN1CC2CN(C(=O)ON3C(=O)CCC3=O)CC2C1 (stereo not shown) [Example 197]")
"< 25%"
>>> observedvalue("O=C(ON1C(=O)CCC1=O)N1CC2CN(Cc3ccc(Cl)cc3N3CCC4(CCOCC4)C3)CC2C1 (stereo not shown) [Example 106]")
"25 to 75%"
>>> observedvalue("CC(=O)N1CCC(n2nc(C)cc2CN2CC3CN(C(=O)OC(C(F)(F)F)C(F)(F)F)CC3C2)CC1 (stereo not shown) [Example 60]")
"> 75%"
>>> observedvalue("CC(=O)N1CCC(c2nn(C(C)C)cc2CN2CC3CN(C(=O)ON4C(=O)CCC4=O)CC3C2)CC1 (stereo not shown) [Example 119]")
"< 25%"
>>> observedvalue("Cn1nc(-c2cccc(F)c2)cc1CN1CC2CN(C(=O)OC(C(F)(F)F)C(F)(F)F)CC2C1 (stereo not shown) [Example 195]")
"> 75%"
>>> observedvalue("O=C(OC(C(F)(F)F)C(F)(F)F)N1CC2CN(Cc3ccccc3-c3ccccc3)CC2C1 (stereo not shown) [Example 12]")
"> 75%"
>>> observedvalue("CC(=O)N1CCN(c2cc(F)ccc2CN2CC3CN(C(=O)ON4C(=O)CCC4=O)CC3C2)CC1 (stereo not shown) [Example 92]")
"< 25%"
>>> observedvalue("O=C(ON1C(=O)CCC1=O)N1CC2CN(Cc3ccc(F)cc3N3CCOCC3)CC2C1 (stereo not shown) [Example 89]")
"< 25%"

###

Target: FAAH (Mus musculus, UniProt O08914)
Sequence (O08914 whole entry): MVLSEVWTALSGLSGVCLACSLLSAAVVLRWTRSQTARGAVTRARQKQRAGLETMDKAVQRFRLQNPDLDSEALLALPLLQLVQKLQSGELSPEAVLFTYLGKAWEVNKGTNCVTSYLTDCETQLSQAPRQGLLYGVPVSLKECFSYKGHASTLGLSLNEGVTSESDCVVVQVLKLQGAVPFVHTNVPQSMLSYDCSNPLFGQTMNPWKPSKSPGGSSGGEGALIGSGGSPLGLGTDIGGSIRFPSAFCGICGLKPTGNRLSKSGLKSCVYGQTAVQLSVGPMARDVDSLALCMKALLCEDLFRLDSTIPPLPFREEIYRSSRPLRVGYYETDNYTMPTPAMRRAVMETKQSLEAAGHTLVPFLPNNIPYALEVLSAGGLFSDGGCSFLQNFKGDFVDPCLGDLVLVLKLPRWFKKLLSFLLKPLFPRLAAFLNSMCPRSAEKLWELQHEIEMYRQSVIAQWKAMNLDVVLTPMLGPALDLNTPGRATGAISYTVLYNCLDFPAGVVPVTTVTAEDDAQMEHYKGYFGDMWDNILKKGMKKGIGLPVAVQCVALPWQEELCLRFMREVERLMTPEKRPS
Assay: In vitro competitive activity-based protein profiling (Table 2, % inhibition at 1 μM)
Assay type: biochemical
Conditions: read-out: % Inhibition at 1 μM FAAH
assayMetric: inhibition at 1 µM

>>> observedvalue("Cc1cccc(CN2CC3CN(C(=O)OC(C(F)(F)F)C(F)(F)F)CC3C2)c1N1CCCCC1 (stereo not drawn)")
"< 25%"
>>> observedvalue("Cc1c(CN2CC3CN(C(=O)OC(C(F)(F)F)C(F)(F)F)CC3C2)cccc1N1CCCCC1 (stereo not drawn)")
"25 to 75%"
>>> observedvalue("O=C(ON1C(=O)CCC1=O)N1CC2CN(Cc3ccc(Cl)cc3N3CCOC4CCCC43)CC2C1 (stereo not drawn)")
"< 25%"
>>> observedvalue("O=C(OC(C(F)(F)F)C(F)(F)F)N1CC2CN(Cc3cccc(-c4ccccc4)c3)CC2C1 (stereo not drawn)")
"25 to 75%"
>>> observedvalue("O=C(OC(C(F)(F)F)C(F)(F)F)N1CC2CN(Cc3cc(CN4CCCC4)ccc3OC(F)(F)F)CC2C1 (stereo not drawn)")
"< 25%"
>>> observedvalue("CC(C)c1ccc(CN2CC3CN(C(=O)OC(C(F)(F)F)C(F)(F)F)CC3C2)c(N2CCCC2)c1 (stereo not drawn)")
"< 25%"
>>> observedvalue("CC(=O)N1CCC2(CCN(c3ccccc3CN3CC4CN(C(=O)OC(C(F)(F)F)C(F)(F)F)CC4C3)C2)C1 (stereo not drawn)")
"< 25%"
>>> observedvalue("CS(=O)(=O)N1CCC2(CCN(c3ccccc3CN3CC4CN(C(=O)OC(C(F)(F)F)C(F)(F)F)CC4C3)C2)C1 (stereo not drawn)")
"25 to 75%"
>>> observedvalue("O=C(OC(C(F)(F)F)C(F)(F)F)N1CC2CN(C(c3ccc(Cl)cc3)c3ccc(Cl)cc3)CC2C1 (stereo not drawn)")
"< 25%"
>>> observedvalue("CC(C)(C)c1cc(CN2CC3CN(C(=O)OC(C(F)(F)F)C(F)(F)F)CC3C2)n(-c2ccccc2Cl)n1 (stereo not drawn)")
"< 25%"
>>> observedvalue("O=C(OC(C(F)(F)F)C(F)(F)F)N1CC2CN(Cc3ccc(C(=O)N4CCOCC4)c(OC(F)(F)F)c3)CC2C1 (stereo not drawn)")
"< 25%"
>>> observedvalue("O=C(ON1C(=O)CCC1=O)N1CC2CN(Cc3ccc(C(=O)N4CCCC4)cc3Cl)CC2C1 (stereo not drawn)")
"< 25%"
>>> observedvalue("O=C(OC(C(F)(F)F)C(F)(F)F)N1CC2CN(Cc3ccc(Cl)cc3N3CCOC4CCCC43)CC2C1 (stereo not drawn)")
"< 25%"
>>> observedvalue("CC(=O)N1CCN(c2cc(C(C)C)ccc2CN2CC3CN(C(=O)ON4C(=O)CCC4=O)CC3C2)CC1 (stereo not drawn)")
"< 25%"
>>> observedvalue("CCc1cc(CN2CC3CN(C(=O)OC(C(F)(F)F)C(F)(F)F)CC3C2)n(-c2ccccc2Cl)n1 (stereo not drawn)")
"< 25%"
>>> observedvalue("CC(C)n1cc(CN2CC3CN(C(=O)ON4C(=O)CCC4=O)CC3C2)c(-c2ccccc2)n1 (stereo not drawn)")
"< 25%"
>>> observedvalue("O=C(OC(C(F)(F)F)C(F)(F)F)N1CC2CN(Cc3cccc(Cl)c3N3CCC(F)(F)CC3)CC2C1 (stereo not drawn)")
"< 25%"
>>> observedvalue("CC(=O)N1CCN(c2cc(Cl)ccc2CN2CC3CN(C(=O)ON4C(=O)CCC4=O)CC3C2)CC1 (stereo not drawn)")
"< 25%"
>>> observedvalue("Cc1c(CN2CC3CN(C(=O)ON4C(=O)CCC4=O)CC3C2)cccc1N1CCN(S(C)(=O)=O)CC1 (stereo not drawn)")
"< 25%"
>>> observedvalue("O=C(OC(C(F)(F)F)C(F)(F)F)N1CC2CN(Cc3ccc(Cl)cc3N3CCC4(CCNC4=O)CC3)CC2C1 (stereo not drawn)")
"< 25%"
>>> observedvalue("O=C(OC(C(F)(F)F)C(F)(F)F)N1CC2CN(Cc3cc(CN4CCCCC4)ccc3OC(F)(F)F)CC2C1 (stereo not drawn)")
"< 25%"
>>> observedvalue("CC(=O)NC1CCN(c2cccc(CN3CC4CN(C(=O)ON5C(=O)CCC5=O)CC4C3)c2C)CC1 (stereo not drawn)")
"< 25%"
>>> observedvalue("Cc1cccc(CN2CC3CN(C(=O)OC(C(F)(F)F)C(F)(F)F)CC3C2)c1N1CCOCC1 (stereo not drawn)")
"< 25%"
>>> observedvalue("O=C(OC(C(F)(F)F)C(F)(F)F)N1CC2CN(Cc3ccc(N4CCOCC4)cc3F)CC2C1 (stereo not drawn)")
"25 to 75%"
>>> observedvalue("CCn1cc(CN2CC3CN(C(=O)OC(C(F)(F)F)C(F)(F)F)CC3C2)c(-c2ccccc2N2CCC2)n1 (stereo not drawn)")
"< 25%"
>>> observedvalue("O=C(OC(C(F)(F)F)C(F)(F)F)N1CC2CN(Cc3ccc(Cl)cc3N3CCCC3)CC2C1 (stereo not drawn)")
"25 to 75%"
>>> observedvalue("CC(C)c1ccc(CN2CC3CN(C(=O)ON4C(=O)CCC4=O)CC3C2)c(N2CCCC2)c1 (stereo not drawn)")
"< 25%"
>>> observedvalue("CCn1cc(CN2CC3CN(C(=O)OC(C(F)(F)F)C(F)(F)F)CC3C2)c(-c2ccccc2N2CCCCC2)n1 (stereo not drawn)")
"< 25%"
>>> observedvalue("CC1COCCN1c1cc(Cl)ccc1CN1CC2CN(C(=O)OC(C(F)(F)F)C(F)(F)F)CC2C1 (stereo not drawn)")
"< 25%"
>>> observedvalue("O=C(OC(C(F)(F)F)C(F)(F)F)N1CC2CN(Cc3cc(CN4CCOCC4)ccc3OC(F)(F)F)CC2C1 (stereo not drawn)")
"< 25%"
